Molecular target: T1, SdrF N1N2N3 (52-679), His-tagged recombinant A domain of S. epidermidis SdrF (Staphylococcus epidermidis (K28 genomic …, UniProt Q9KI14 53-678))
T1 construct: expressed in E. coli; also called SdrF A domain
T1 sequence: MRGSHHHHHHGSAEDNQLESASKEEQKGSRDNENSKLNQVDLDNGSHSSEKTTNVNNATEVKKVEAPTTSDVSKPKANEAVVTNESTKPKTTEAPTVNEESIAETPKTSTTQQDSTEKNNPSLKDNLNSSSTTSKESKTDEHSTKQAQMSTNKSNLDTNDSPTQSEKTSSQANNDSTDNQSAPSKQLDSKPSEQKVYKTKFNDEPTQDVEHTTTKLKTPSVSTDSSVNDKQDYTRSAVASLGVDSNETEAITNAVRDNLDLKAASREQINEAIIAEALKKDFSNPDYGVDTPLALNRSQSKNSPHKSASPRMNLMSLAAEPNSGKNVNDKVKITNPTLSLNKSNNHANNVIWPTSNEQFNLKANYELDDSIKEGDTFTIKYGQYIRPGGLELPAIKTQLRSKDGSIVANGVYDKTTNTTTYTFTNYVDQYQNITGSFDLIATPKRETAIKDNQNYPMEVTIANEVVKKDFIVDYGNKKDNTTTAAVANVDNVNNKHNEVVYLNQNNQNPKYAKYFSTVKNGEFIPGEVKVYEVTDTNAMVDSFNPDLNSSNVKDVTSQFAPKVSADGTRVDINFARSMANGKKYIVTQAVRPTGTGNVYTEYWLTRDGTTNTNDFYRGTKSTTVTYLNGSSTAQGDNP
Assay: Biacore 3000, ligand capture of mAb, SdrF (N1N2N3) in flow
Exercise: state measured Kd for each of the binders provided.
One number for each entry, in pM.

[
  {
    "binder": "murine anti-SdrF monoclonal antibody 110-15 (antibody, V domains shown, Mouse hybridoma antibody (fusion F110); also called Murine 110-15; 110-15VL-Mouse/110-15VH-Mouse) VH: EVQLVESGGGLVKPGGSLKLSCAASGFAFSSYDMSWVRQTPEKRLEWVAYISSGGGITYYPDTVKGRFTISRDNAKNTLYVQMSSLKSEDTAIYYCTRHDRDSWFAYWGQGTLVTVSA VL: QIVLTQSPAIMSASPGEEGTMTCSASSSVRYMYWYRQKPGSSPRLLIYDTSNLASGVPVRFSGSGSGTSYSLTISRMEAEDAATYYCQQWSSYPPTFGGGTKLEMK",
    "Kd, pM": 770
  }
]

Consider now this further binder.
Q: Could you please provide reported Kd for Humanized 108-36 (antibody, V domains shown, N-linked carbohydrate chain on the asparagine at position 30 of the variable heavy chain, Humanized (veneered) variable regions with 'the appropriate light or heavy chain constant region', expressed in NSO cells; also called Hu108-36) VH: QVTLRESGPGILKPSQTLSLTCTFSGFSLNTSGMGVTWIRQPSGKGLEWLANIYWDDDKRYNPSLKSRLTISKANSRNQVFLKITSVDPVDTATYYCTRPNYLGTVYWYFDVWGQGTMVTVSS VL: EIVLTQSPATMSASPGERVTMSCSASSSVSYMYWYQQKPGQSPRVLIYDTSNLASGVPSRFSGSGSGTSYSLTISSMEPEDAATYYCQQWNGYPPTFGGGTKLEVK ? Thanks!
Ans: 460
